// cross-source set; read-out = IC50; system = human PDE10A2 (Homo sapiens (Human))

Exercise: Supply IC50 measured with human PDE10A2 (Homo sapiens (Human)) for O=C1c2c(cccc2-c2cccnc2)CN1CCc1ccc2ccccc2n1 .
Key: < 100 nM

Exercise: Fill in: IC50 on human PDE10A2 (Homo sapiens (Human)), entry O=C1c2c(N3CCOCC3)ccnc2CN1CCc1nc2ccc(F)cc2s1
Key: < 100 nM

Exercise: Param request: IC50 | system human PDE10A2 (Homo sapiens (Human)) | item Cc1cccnc1CCN1Cc2nccc(-c3ccncc3)c2C1=O
Key: 200 to 500 nM

Exercise: Please report IC50 with human PDE10A2 (Homo sapiens (Human)) for item O=C1c2cccc(-c3cc[nH]n3)c2CN1CCc1ccc2ccccc2n1 .
Key: < 100 nM

Exercise: Give reported IC50 for Cc1nc2c(C)cc(CCc3nc(N4CCCC4)nn3C)nn2c1C (human PDE10A2 (Homo sapiens (Human)))
Key: 2 nM

Exercise: Recall the reported IC50 of O=C1c2cccc(-c3ccnc(C4CC4)c3)c2CN1CCc1ccc2ccccc2n1 when tested on human PDE10A2 (Homo sapiens (Human)).
Key: 200 to 500 nM

Exercise: Report IC50 on human PDE10A2 (Homo sapiens (Human)) for this entry: O=C1c2c(cccc2-c2ccncc2)CN1CCc1ccc2ccccc2n1
Key: < 100 nM

Exercise: Please look at Cc1ccnc(-c2cnn(C)c2C(=O)Nc2cc3nc(-c4ccccc4)nn3cc2F)c1 and tell me its recorded IC50 on human PDE10A2 (Homo sapiens (Human)).
Key: < 5 nM

###

pIC50: −log10 of the molar value.
pIC50 for UniProt:Q9Y233 - collated from the literature.

Exercise: # return pIC50 of O=C1c2cccc(N3CCOCC3)c2CN1CCc1ccc2ccccc2n1 (system: UniProt:Q9Y233)
Key: > 7.00

Exercise: Identify measured pIC50 obtained with UniProt:Q9Y233 for COc1ccc(-c2cn[nH]c2)c2c1CN(CCc1ccc3ccccc3n1)C2=O .
Key: > 7.00

Exercise: Retrieve pIC50 on UniProt:Q9Y233; query Cc1cnc2c(C(=O)NC3(c4ccc(C(F)(F)F)cc4F)CCOCC3O)cnn2c1 (racemic)
Key: < 5.00

Exercise: Specify pIC50 for C[C@@H]1CN(c2nc3cc(NC(=O)c4c(-c5nc(C(F)F)cs5)cnn4C)ccn3n2)C[C@H](C)O1 , system UniProt:Q9Y233.
Key: > 8.30

Exercise: Write down the reported pIC50 (system: UniProt:Q9Y233) of Cn1ncc(C(=O)N2CC3(COC3)C2)c1C(=O)Nc1ccn2cc(-c3ccccc3)nc2n1
Key: 7.31

Exercise: Provide pIC50, tested on UniProt:Q9Y233, for Cc1ccc2nc(C)c3nnc(-c4cc(O)ccc4Cl)n3c2n1 .
Key: 7.48

Exercise: Provide pIC50, recorded with UniProt:Q9Y233, of O=C1c2c(cccc2NC2COC2)CN1CCc1ccc2ccccc2n1
Key: > 7.00

Exercise: Give UniProt:Q9Y233 pIC50 for the following molecule: Cn1ncc(NC(=O)c2nc(C3CC3)cnc2Nc2cncnc2)c1C(=O)NCC(C)(C)CO
Key: 8.96

Exercise: State measured pIC50 of the molecule Cc1cncc(-c2cnn(C)c2C(=O)Nc2ccn3nc(N4CCC[C@@H]4C)nc3c2)n1 with UniProt:Q9Y233.
Key: > 8.30
